- System: dog STING (dSTING)
- measurement description: Dog differential scanning fluorimetry (DSF) assay, thermal shift of dog STING protein
- Format: binding
- cond: DSF (dDSF); 100 μM compound, 3 μM dog STING protein; Tm with ligand minus Tm of protein alone
value kind: Delta TM (°C)
Value expressed in °C; do not type the unit.

Example entries and their recorded answers appear below.
compound	data value
Cc1cccc2c(-c3ccc(F)c4nn(C)c(F)c34)nn(-c3ccc(N4C[C@@H]5[C@H](C4)[C@H]5C(=O)O)nc3)c12 [Example 13]	33.3
Cc1cccc2c(-c3c(F)ccc4nn(C)cc34)nn(-c3ccc(N4C[C@@H]5C[C@H]4C[C@H]5C(=O)O)nc3)c12 [Example 27-1]	36.9
CC(=O)N1CCN(c2ccc(-n3nc(-c4c(F)ccc5nn(C)cc45)c4cccc(C)c43)cn2)CC1 [Example 29]	32.0

Exercise: Recall the reported Delta TM of Cc1cccc2c(-c3c(F)ccc4nn(C)cc34)nn(-c3ccc(N4CCC(C(=O)O)CC4)nc3)c12 [Example 6] on dog STING (dSTING) and write it down.
Key: 35.5
